Test: Sorption-desorption isotherms, VTI humidity balance
Type: physicochemical
Conditions: Sample RH % 75; in % (unit assumed)
Structures can show the parent of a compound that is named as a salt.
recorded-endpoint: Desorption

Please review the entries below; each comes with its answer.
{"columns": ["molecule", "Desorption"],
 "data": [
  ["Cc1[nH]c2ccccc2c1CCNCc1ccc(/C=C/C(=O)NO)cc1 [Form A of the maleate salt]", 0.17],
  ["Cc1[nH]c2ccccc2c1CCNCc1ccc(/C=C/C(=O)NO)cc1 [Free Base]", 5.31]
]}

A: Cc1[nH]c2ccccc2c1CCNCc1ccc(/C=C/C(=O)NO)cc1 [Form A of the L-tartarate salt]
B: Cc1[nH]c2ccccc2c1CCNCc1ccc(/C=C/C(=O)NO)cc1 [Form A of the mesylate salt]
Asked: Could you point out whether the larger Desorption belongs to A or to B ? Select an item and report its label.
Given back: A
(A: 0.36, B: 0.25)
